# measured target: T1, human Flag-tagged soluble TWEAK (amino acids 106-249) (human, UniProt O43508 106-249)
# T1 construct: N-terminal placement here is only an order of listing; not shown: Flag tag
# T1 sequence: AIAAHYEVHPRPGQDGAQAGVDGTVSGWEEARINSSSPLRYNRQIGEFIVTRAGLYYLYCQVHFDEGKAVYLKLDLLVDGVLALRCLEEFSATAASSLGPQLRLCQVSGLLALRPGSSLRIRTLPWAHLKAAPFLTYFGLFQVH
# method notes: competition ELISA: antibody pre-incubated with human Flag-TWEAK, binding to coated human Fn14:Fc
Exercise: for every item that follows, state its recorded IC50.
Dear colleague, please return just the value in ng/mL, with no unit written.

(Q) Item Antibody 31 (antibody, V domains shown, Humanized variant of antibody 305; also called humanized 305 variant 305-LC4 / 305-HC7) VH: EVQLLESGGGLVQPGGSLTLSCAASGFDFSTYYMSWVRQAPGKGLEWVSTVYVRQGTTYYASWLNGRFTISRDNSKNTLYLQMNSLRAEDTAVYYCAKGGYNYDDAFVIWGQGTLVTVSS VL: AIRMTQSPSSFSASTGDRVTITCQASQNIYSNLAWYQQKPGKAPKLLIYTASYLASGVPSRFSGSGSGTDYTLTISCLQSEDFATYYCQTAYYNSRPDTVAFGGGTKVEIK has what recorded IC50?
(A) 1.7

(Q) Item Antibody 32 (antibody, V domains shown, Humanized variant of antibody 305; also called humanized 305 variant 305-LC6 / 305-HC8) VH: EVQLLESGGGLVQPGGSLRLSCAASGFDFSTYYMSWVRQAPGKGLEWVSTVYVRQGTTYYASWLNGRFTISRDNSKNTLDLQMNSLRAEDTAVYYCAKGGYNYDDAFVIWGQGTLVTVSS VL: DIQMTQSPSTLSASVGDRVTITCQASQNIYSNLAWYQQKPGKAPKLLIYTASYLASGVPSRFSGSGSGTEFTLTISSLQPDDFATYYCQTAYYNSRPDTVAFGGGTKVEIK has what recorded IC50?
(A) 1.5

(Q) Item Antibody 27 (antibody, V domains shown, also called humanized 305 variant 305-LC2 / 305-HC4) VH: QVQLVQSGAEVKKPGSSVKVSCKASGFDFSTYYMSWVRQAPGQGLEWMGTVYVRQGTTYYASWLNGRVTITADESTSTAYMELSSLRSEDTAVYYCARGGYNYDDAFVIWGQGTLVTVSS VL: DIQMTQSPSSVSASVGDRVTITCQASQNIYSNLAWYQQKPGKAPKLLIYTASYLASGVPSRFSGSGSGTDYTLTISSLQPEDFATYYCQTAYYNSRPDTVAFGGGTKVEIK has what recorded IC50?
(A) 2.3

(Q) Item Antibody 29 (antibody, V domains shown, Humanized variant of antibody 305; also called humanized 305 variant 305-LC2 / 305-HC8) VH: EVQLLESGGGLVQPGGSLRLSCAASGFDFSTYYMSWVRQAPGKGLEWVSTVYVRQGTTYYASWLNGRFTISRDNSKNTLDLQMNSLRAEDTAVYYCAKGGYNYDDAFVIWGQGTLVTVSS VL: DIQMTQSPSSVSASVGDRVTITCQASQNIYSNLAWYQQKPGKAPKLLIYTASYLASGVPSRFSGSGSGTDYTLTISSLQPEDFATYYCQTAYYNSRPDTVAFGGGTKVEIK has what recorded IC50?
(A) 1.8

(Q) Item Antibody 30 (antibody, V domains shown, Humanized variant of antibody 305; also called humanized 305 variant 305-LC1 / 305-HC10) VH: EVQLLESGGGLVQPGGSLRLSCAASGFDFSTYYMSWVRQAPGKGLEWVSTVYVRQGTTYYASWLNGRFTISRDNSKNTLYLQMNSLTAEDTAVYYCAKGGYNYDDAFVIWGQGTLVTVSS VL: DIQMTQSPSSVSASVGDRVTITCQASQNIYSNLAWYQQKPGKAPKLLIYTASYLASGVPSRFSGSGSGTDFTLTISSLQPEDFATYYCQTAYYNSRPDTVAFGGGTKVEIK has what recorded IC50?
(A) 2.3

(Q) Item Antibody 28 (antibody, V domains shown, Humanized variant of antibody 305; also called humanized 305 variant 305-LC2 / 305-HC7) VH: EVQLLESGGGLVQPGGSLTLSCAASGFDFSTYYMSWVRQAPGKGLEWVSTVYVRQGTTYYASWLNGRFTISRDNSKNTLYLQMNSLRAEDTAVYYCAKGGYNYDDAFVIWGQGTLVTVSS VL: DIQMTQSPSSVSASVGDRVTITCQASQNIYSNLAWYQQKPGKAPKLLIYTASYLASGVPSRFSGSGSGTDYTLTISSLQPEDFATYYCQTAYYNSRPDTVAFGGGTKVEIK has what recorded IC50?
(A) 1.5
